Assay: Metabolic stability in human liver microsomes, unbound intrinsic clearance (Cl int/fu mic)
Assay type: in vitro ADME
Settings: human, liver microsomes, pH 7.4, human liver microsomes 0.25 mg/mL, 0.5 μM compound, NADPH, read-out: Cl int, mic unb. (h) [l/h/kg] (unbound intrinsic clearance, human)
Structures can show the parent of a compound that is named as a salt.
Exercise: state measured CLint scaled at 0.5 μM for each of the compounds provided.

COc1nc(OCC2CCC(C(F)(F)F)CC2)c(F)cc1CNC(=O)[C@@H]1CCCN1C (some centres unmarked) :: 50 to 500 L/h/kg
COc1nc(OC[C@@H]2CCC(F)(F)C2)c(F)cc1CNC(=O)[C@H]1CCCN1C :: < 5 L/h/kg
COc1nc(N2CCC(CC(F)(F)F)C2)c(F)cc1CNC(=O)[C@@H]1CCCN1 (some centres unmarked) :: 5 to 50 L/h/kg

For every listed record, write down its CLint scaled at 0.5 μM.
1. COc1nc(OCC2CC(F)(F)C2)c(F)cc1CNC(=O)[C@@H]1CCCN1C [Example 92, Hydrochloride]
2. COc1nc(OC2CCC(CF)CC2)c(F)cc1CNC(=O)[C@@H]1CCCN1 (some centres unmarked)

1: < 5 L/h/kg; 2: 5 to 50 L/h/kg

Would you be so kind as to report CLint scaled at 0.5 μM for each listed record?
1. COc1nc(N2CCC(F)CC2)c(F)cc1CNC(=O)[C@@H]1CCCN1
2. COc1nc(OC2CC(C(F)(F)F)C2)c(F)cc1CNC(=O)[C@@H]1CCCN1 (some centres unmarked) [Example 105, Hydrochloride]
3. COc1nc(OC2CCC3(CC2)CC3(F)F)c(F)cc1CNC(=O)[C@@H]1CCCN1 (some centres unmarked)

1. < 5 L/h/kg
2. 5 to 50 L/h/kg
3. 5 to 50 L/h/kg
